TEST SYSTEM: VEGFR-2 (Homo sapiens, UniProt P35968)
Sequence (P35968 20-1356): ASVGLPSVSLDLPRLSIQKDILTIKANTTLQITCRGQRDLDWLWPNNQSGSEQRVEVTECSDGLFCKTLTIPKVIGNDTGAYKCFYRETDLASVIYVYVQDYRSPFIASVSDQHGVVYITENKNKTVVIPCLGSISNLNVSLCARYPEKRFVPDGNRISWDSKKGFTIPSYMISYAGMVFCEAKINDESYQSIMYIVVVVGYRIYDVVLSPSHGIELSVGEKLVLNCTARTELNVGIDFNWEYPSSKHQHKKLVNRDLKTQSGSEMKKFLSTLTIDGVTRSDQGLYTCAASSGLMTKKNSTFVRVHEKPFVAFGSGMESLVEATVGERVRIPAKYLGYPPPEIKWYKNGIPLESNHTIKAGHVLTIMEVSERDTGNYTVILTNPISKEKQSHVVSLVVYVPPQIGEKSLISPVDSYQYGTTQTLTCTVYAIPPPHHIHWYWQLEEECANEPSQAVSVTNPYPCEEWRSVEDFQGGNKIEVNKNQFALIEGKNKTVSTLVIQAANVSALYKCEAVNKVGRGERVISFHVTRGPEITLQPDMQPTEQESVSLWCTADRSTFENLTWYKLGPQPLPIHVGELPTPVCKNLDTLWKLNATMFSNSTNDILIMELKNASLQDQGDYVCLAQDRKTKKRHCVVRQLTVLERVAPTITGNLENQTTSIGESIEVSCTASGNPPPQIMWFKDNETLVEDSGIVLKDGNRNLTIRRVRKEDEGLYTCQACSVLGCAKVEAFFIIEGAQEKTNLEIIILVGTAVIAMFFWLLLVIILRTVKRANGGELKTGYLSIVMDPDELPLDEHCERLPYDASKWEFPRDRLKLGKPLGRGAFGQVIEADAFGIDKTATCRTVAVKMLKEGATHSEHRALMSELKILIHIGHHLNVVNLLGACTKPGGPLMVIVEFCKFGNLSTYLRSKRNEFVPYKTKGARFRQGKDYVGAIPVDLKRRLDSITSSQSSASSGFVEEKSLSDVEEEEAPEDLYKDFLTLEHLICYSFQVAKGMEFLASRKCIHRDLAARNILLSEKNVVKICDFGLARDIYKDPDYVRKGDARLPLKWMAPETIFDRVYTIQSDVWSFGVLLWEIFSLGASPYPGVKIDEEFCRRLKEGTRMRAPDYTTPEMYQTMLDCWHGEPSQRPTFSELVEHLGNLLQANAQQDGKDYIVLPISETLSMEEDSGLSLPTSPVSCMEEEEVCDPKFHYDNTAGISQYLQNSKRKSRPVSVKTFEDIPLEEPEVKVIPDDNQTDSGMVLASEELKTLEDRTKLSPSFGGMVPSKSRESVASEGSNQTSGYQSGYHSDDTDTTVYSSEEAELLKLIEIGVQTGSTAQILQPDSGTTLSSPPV
TEST METHOD NOTES: In vitro VEGFR-2 inhibitory assay (ELISA kit)
CONDITION DETAILS: VEGFR-2 kinase, MCF7
PARAMETER: Inhibition % (%)

O=C(Cn1cnc2cc(Cl)ccc2c1=O)Nc1ccccc1 :: 67.623
O=C(Cn1cnc2cc(Cl)ccc2c1=O)Nc1ccccc1Cl :: 80.740

[I] O=C(Cn1cnc2cc([N+](=O)[O-])ccc2c1=O)Nc1ccccc1
[II] O=C(Cn1cnc2cc([N+](=O)[O-])ccc2c1=O)Nc1ccccc1Cl
Incoming: Out of I and II , name the one with the higher Inhibition %. Answer with the label corresponding to your selection.
Outgoing: I

---

Each entry below carries its reported cytotoxicity at 0.195 µg/mL.
System: HepG-2
TEST METHOD NOTES: MTT anti-proliferative assay, HepG-2
Assay type: cell-based, human
CONDITION DETAILS: Homo sapiens, HepG2; HepG-2, 0.195 ug/ml; read-out: Toxicity %
State the answer as a number, implicitly in %.

The following molecules have reported results that may help.
O=C(Cn1cnc2cc([N+](=O)[O-])ccc2c1=O)Nc1ccc(F)c(Cl)c1 [9e] :: 12.5
O=C(Cn1cnc2cc(Cl)ccc2c1=O)Nc1ccc(Cl)cc1 [8c] :: 10.8
O=C(Cn1cnc2cc(Cl)ccc2c1=O)Nc1ccc(F)c(Cl)c1 [8e] :: 6.15
O=C(Cn1cnc2cc(Cl)ccc2c1=O)Nc1ccccc1 [8a] :: 54.1
O=C(Cn1cnc2cc([N+](=O)[O-])ccc2c1=O)Nc1ccccc1 [9a] :: 54.1
O=C(Cn1cnc2cc([N+](=O)[O-])ccc2c1=O)Nc1ccccc1Cl [9b] :: 50.3
O=C(Cn1cnc2cc(Cl)ccc2c1=O)Nc1ccccc1Cl [8b] :: 47.1

Now take the following molecule into account.
Incoming: Lab note: need cytotoxicity at 0.195 µg/mL with HepG-2 for entry O=C(Cn1cnc2cc([N+](=O)[O-])ccc2c1=O)Nc1ccc(Cl)cc1 [9c] , please look it up.
Outgoing: 16.6

---

viability at 1.563 µmol values for the compounds below.
Test system: K-562
TEST METHOD NOTES: MTT anti-proliferative assay, K-562
Format: cell-based, human
CONDITION DETAILS: Homo sapiens, K562; K-562, 1.563 umol
Answer with a number only, understood to be in %.

Example results:
O=C(Cn1cnc2cc([N+](=O)[O-])ccc2c1=O)Nc1ccccc1 :: 16.5
O=C(Cn1cnc2cc(Cl)ccc2c1=O)Nc1ccc(Cl)cc1 :: 19.5
O=C(Cn1cnc2cc([N+](=O)[O-])ccc2c1=O)Nc1ccc(F)c(Cl)c1 :: 19
O=C(Cn1cnc2cc(Cl)ccc2c1=O)Nc1ccccc1 :: 12.7
O=C(Cn1cnc2cc([N+](=O)[O-])ccc2c1=O)Nc1ccccc1Cl :: 13.6
O=C(Cn1cnc2cc([N+](=O)[O-])ccc2c1=O)Nc1ccc(Cl)cc1 :: 22.3
O=C(Cn1cnc2cc(Cl)ccc2c1=O)Nc1ccc(F)c(Cl)c1 :: 21.1

Incoming: What value of measured viability at 1.563 µmol is listed for O=C(Cn1cnc2cc(Cl)ccc2c1=O)Nc1ccccc1Cl ?
Outgoing: 16.4

---

Tested on: K-562
TEST METHOD NOTES: MTT anti-proliferative assay, K-562
Format: cell-based, human
CONDITION DETAILS: Homo sapiens, K562; K-562, 0.195 umol
PARAMETER: viability at 0.195 µmol (%)
Respond with the bare value in %.

Below, each entry is followed by its recorded viability at 0.195 µmol result.
O=C(Cn1cnc2cc([N+](=O)[O-])ccc2c1=O)Nc1ccc(F)c(Cl)c1 :: 60.6
O=C(Cn1cnc2cc(Cl)ccc2c1=O)Nc1ccccc1 :: 46.6
O=C(Cn1cnc2cc([N+](=O)[O-])ccc2c1=O)Nc1ccc(Cl)cc1 :: 80.6
O=C(Cn1cnc2cc(Cl)ccc2c1=O)Nc1ccc(Cl)cc1 :: 80.8

API: the following record is the query input.
Incoming: Which measured viability at 0.195 µmol value corresponds to O=C(Cn1cnc2cc(Cl)ccc2c1=O)Nc1ccccc1Cl ?
Outgoing: 82.7

---

TEST SYSTEM: EGFR (Homo sapiens)
Sequence (P00533 25-1210): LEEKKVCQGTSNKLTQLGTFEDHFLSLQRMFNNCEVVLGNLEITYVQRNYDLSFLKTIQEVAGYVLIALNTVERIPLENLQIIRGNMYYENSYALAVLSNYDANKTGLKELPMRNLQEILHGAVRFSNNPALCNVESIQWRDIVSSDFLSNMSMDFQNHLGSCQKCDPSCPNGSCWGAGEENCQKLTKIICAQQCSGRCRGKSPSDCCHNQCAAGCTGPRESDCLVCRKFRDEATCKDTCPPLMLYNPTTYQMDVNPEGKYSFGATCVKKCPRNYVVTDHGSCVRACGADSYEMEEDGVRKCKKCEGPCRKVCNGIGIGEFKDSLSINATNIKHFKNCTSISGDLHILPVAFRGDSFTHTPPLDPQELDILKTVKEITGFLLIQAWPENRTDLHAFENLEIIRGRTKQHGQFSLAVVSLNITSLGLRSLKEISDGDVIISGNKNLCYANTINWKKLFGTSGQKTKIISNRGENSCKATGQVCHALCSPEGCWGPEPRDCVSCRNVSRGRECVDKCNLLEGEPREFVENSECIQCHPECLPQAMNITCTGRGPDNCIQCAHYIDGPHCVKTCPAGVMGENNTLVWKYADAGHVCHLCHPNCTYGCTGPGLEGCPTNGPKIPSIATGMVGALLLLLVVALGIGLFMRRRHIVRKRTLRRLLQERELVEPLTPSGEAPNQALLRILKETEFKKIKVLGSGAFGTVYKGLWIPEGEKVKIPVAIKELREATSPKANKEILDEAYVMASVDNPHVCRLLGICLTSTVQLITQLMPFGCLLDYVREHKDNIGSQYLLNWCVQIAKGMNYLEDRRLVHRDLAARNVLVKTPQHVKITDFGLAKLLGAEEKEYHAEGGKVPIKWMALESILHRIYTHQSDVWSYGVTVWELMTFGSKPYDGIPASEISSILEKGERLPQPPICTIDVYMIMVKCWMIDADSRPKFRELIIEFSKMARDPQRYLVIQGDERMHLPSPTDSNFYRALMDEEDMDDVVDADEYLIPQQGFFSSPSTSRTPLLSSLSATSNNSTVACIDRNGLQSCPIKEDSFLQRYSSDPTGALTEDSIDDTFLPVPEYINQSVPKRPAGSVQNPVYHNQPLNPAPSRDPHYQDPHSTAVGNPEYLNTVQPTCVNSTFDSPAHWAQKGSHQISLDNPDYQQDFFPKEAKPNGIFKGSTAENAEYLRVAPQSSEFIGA
TEST METHOD NOTES: EGFR kinase inhibition assay (ELISA kit)
CONDITION DETAILS: HepG2
PARAMETER: Inhibition % (%)

Before answering, review these 2 worked examples.
O=C(Cn1cnc2cc(Cl)ccc2c1=O)Nc1ccccc1 :: 83.210
O=C(Cn1cnc2cc([N+](=O)[O-])ccc2c1=O)Nc1ccccc1 :: 83.703

[P] O=C(Cn1cnc2cc(Cl)ccc2c1=O)Nc1ccccc1Cl
[Q] O=C(Cn1cnc2cc([N+](=O)[O-])ccc2c1=O)Nc1ccccc1Cl
Incoming: Which record shows the lower Inhibition %: the first, P , or the second, Q ? The response must carry the label of the picked entry.
Outgoing: Q

---

# Lookup of reported cytotoxicity at 25 µg/mL keyed by entry
System: HepG-2
TEST METHOD NOTES: MTT anti-proliferative assay, HepG-2
Type: cell-based, human
CONDITION DETAILS: Homo sapiens, HepG2; HepG-2, 25 ug/ml; read-out: Toxicity %
The reply should contain only the number, in %.

Some compounds with recorded cytotoxicity at 25 µg/mL:
O=C(Cn1cnc2cc([N+](=O)[O-])ccc2c1=O)Nc1ccc(F)c(Cl)c1 :: 93.2
O=C(Cn1cnc2cc(Cl)ccc2c1=O)Nc1ccccc1Cl :: 94.3
O=C(Cn1cnc2cc([N+](=O)[O-])ccc2c1=O)Nc1ccccc1Cl :: 94.1
O=C(Cn1cnc2cc(Cl)ccc2c1=O)Nc1ccc(Cl)cc1 :: 93.3
O=C(Cn1cnc2cc([N+](=O)[O-])ccc2c1=O)Nc1ccc(Cl)cc1 :: 93.8
O=C(Cn1cnc2cc(Cl)ccc2c1=O)Nc1ccccc1 :: 94.1

Incoming: Fill blank: measured cytotoxicity at 25 µg/mL of the compound O=C(Cn1cnc2cc(Cl)ccc2c1=O)Nc1ccc(F)c(Cl)c1 is ____.
Outgoing: 92.8

Incoming: Query (compound): O=C(Cn1cnc2cc([N+](=O)[O-])ccc2c1=O)Nc1ccccc1 ; field requested: cytotoxicity at 25 µg/mL
Outgoing: 94.3

---

TEST SYSTEM: VEGFR-2 (Homo sapiens, UniProt P35968)
TEST METHOD NOTES: In vitro VEGFR-2 inhibitory assay (ELISA kit)
CONDITION DETAILS: VEGFR-2 kinase, MCF7
PARAMETER: Activity % (%)

O=C(Cn1cnc2cc([N+](=O)[O-])ccc2c1=O)Nc1ccccc1 :: 19.964

[1] O=C(Cn1cnc2cc(Cl)ccc2c1=O)Nc1ccccc1Cl
[2] O=C(Cn1cnc2cc(Cl)ccc2c1=O)Nc1ccccc1
[3] O=C(Cn1cnc2cc([N+](=O)[O-])ccc2c1=O)Nc1ccccc1Cl
Incoming: Please produce an ascending ranking of these compounds based on Activity %. // list labels; follow requested order
Outgoing: 1, 2, 3

---

TEST METHOD NOTES: MTT cytotoxicity against normal cells
Format: cell-based, human
CONDITION DETAILS: human, HEK-293 cells (normal human embryonic kidney); HEK-293, 3.125 umol/ml
PARAMETER: viability at 3 days, 3.125 umol/ml (%)
Give just the numeric value; % need not be written.

Incoming: If you can, please state the reported viability at 3 days, 3.125 umol/ml value of O=C(Cn1cnc2cc([N+](=O)[O-])ccc2c1=O)Nc1ccccc1Cl .
Outgoing: 29.7

---

System: IL-6R
TEST METHOD NOTES: IL-6R level in HepG-2 cells
Type: cell-based, human
CONDITION DETAILS: HepG-2; control 44.10%
Description: All synthesized compounds were tested at their cytotoxic concentrations in HepG-2 cells for analysis of gene expression levels of apoptotic markers caspase-3, caspase-9, TNF-α, and IL-6 proteins, and only two active compounds were tested for BAX and Bcl-2 proteins. through Flow cytometric analysis. Pellets were collected again and incubated with Total RNA from vehicle-treated (Thermo Scientific, USA). All experiments were performed in […]
PARAMETER: IL-6R protein level (ng/L)
Lab book: enter the figure in ng/L, no units written.

These solved cases illustrate the format of a correct answer.
O=C(Cn1cnc2cc(Cl)ccc2c1=O)Nc1ccc(Cl)cc1 [8c] :: 14.73
O=C(Cn1cnc2cc([N+](=O)[O-])ccc2c1=O)Nc1ccccc1Cl [9b] :: 28.78
O=C(Cn1cnc2cc(Cl)ccc2c1=O)Nc1ccccc1Cl [8b] :: 24.59

Incoming: Test system IL-6R; read-out IL-6R protein level; what value for O=C(Cn1cnc2cc(Cl)ccc2c1=O)Nc1ccccc1 [8a] ?
Outgoing: 19.54

Incoming: Find IL-6R protein level (IL-6R) for the entry O=C(Cn1cnc2cc(Cl)ccc2c1=O)Nc1ccc(F)c(Cl)c1 [8e]
Outgoing: 11.93

Origin of measurements: paper PMC12377202
